# measurement-target: ER-β ligand binding domain (LBD) (Homo sapiens (Human), UniProt Q92731)
# Sequence (Q92731 264-498, species assumed): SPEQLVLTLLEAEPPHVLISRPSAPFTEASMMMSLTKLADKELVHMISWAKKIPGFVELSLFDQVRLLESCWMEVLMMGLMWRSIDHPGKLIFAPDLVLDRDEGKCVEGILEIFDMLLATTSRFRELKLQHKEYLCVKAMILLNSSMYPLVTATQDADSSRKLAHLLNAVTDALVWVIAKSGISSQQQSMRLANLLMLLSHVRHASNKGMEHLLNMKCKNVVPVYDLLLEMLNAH
# assay: ER-β competitive radioligand binding assay with [3H]E2
observable: Ki (nM)
Enter your answer as a number in nM; do not include the unit.

IN: Entry Cc1cccc(CN(c2ccc(O)cc2)c2ccc(O)cc2)c1C [drawing 61] , system ER-β ligand binding domain (LBD) (Homo sapiens (Human), UniProt Q92731): what Ki was measured?
OUT: 35.9

---

# measurement-target: ER-α ligand binding domain (LBD) (Homo sapiens (Human))
# assay: ER-α competitive radioligand binding assay with [3H]E2
observable: Ki (nM)
Kindly answer with a numeric value in nM, unit omitted.

IN: Sample Cc1cccc(CN(c2ccc(O)cc2)c2ccc(O)cc2)c1C [drawing 61] — what was its Ki?
OUT: 7.13

---

# measurement-target: rat ER-α (Rattus norvegicus (Rat))
# Sequence (P06211 whole entry): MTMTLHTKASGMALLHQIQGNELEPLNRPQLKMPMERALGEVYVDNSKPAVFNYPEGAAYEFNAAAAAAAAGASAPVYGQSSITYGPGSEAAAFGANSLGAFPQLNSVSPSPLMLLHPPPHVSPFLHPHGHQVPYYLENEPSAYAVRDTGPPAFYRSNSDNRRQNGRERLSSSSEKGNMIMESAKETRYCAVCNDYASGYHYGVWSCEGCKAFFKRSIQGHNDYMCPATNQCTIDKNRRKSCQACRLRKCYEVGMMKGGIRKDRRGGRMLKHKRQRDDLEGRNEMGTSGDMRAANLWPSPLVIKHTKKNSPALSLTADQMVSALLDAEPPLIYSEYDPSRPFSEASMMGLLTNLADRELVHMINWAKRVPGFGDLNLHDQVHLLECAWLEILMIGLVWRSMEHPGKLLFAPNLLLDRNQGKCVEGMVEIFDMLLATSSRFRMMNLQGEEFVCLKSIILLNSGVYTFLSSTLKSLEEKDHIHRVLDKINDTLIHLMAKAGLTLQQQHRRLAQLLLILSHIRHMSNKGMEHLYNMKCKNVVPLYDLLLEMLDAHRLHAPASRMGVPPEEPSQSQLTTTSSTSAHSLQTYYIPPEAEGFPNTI
# assay: cell-based
observable: pEC50
Note on units: pEC50 is unitless, being -log10 of a concentration expressed in mol/L.

IN: Bench note: what pEC50 did O=C(c1ccc(O)c(F)c1)N(c1ccc(O)cc1)c1ccc(F)cc1 [drawing 68] show?
OUT: 9.19

---

# measurement-target: ER-β ligand binding domain (LBD) (Homo sapiens (Human), UniProt Q92731)
# assay: ER-β competitive radioligand binding assay with [3H]E2
# condition-info: read-out: ER-β Ki
Threshold-based label: Ki under 20 nM gives Satisfied, Ki not under 20 nM gives Not satisfied.

Worked examples, 4 compounds total:
[
  {
    "compound": "Cc1c(F)cccc1C(=O)N(c1ccc(O)cc1)c1ccc(O)cc1",
    "measurement-target": "ER-β ligand binding domain (LBD) (Homo sapiens (Human), UniProt Q92731)",
    "cat": "Not satisfied"
  },
  {
    "compound": "O=C(c1ccc(O)c(F)c1)N(c1ccc(O)cc1)c1ccc(F)cc1 [Compound IV]",
    "measurement-target": "ER-β ligand binding domain (LBD) (Homo sapiens (Human), UniProt Q92731)",
    "cat": "Satisfied"
  },
  {
    "compound": "O=C(c1ccc(O)c(F)c1)N(c1ccc(O)cc1)c1ccc(O)cc1",
    "measurement-target": "ER-β ligand binding domain (LBD) (Homo sapiens (Human), UniProt Q92731)",
    "cat": "Not satisfied"
  },
  {
    "compound": "Oc1ccc(CN(c2ccc(O)cc2)c2ccc(F)cc2)cc1",
    "measurement-target": "ER-β ligand binding domain (LBD) (Homo sapiens (Human), UniProt Q92731)",
    "cat": "Satisfied"
  }
]

Turning to the following compound.
IN: Dear reviewer, please state whether Cc1cccc(CN(c2ccc(O)cc2)c2ccc(O)cc2)c1C [drawing 59] has Ki strictly beneath 20 nM.
OUT: Satisfied

---

# measurement-target: rat ER-β (Rattus norvegicus (Rat))
# Sequence (Q62986 whole entry): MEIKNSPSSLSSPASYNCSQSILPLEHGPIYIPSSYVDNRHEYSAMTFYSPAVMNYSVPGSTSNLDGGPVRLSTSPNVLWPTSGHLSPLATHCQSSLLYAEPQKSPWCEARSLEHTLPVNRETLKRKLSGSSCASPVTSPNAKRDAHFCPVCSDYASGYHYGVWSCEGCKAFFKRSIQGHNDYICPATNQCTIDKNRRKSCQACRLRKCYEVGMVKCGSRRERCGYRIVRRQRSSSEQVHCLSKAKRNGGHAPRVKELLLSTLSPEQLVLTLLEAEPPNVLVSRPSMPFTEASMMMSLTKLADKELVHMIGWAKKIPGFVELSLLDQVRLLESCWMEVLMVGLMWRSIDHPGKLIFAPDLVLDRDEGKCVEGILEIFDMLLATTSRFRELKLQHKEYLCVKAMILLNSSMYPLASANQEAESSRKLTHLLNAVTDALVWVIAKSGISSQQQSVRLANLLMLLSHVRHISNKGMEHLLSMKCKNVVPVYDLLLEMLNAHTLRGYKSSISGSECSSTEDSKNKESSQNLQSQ
# assay: ER-β transactivation assay (ERE-LUC) in HEK-293 cells
observable: EC50 (nM)
Quick reminder: number only, in nM, skip the unit.

IN: Look up EC50: O=C(c1ccc(O)c(F)c1)N(c1ccc(O)cc1)c1ccc(F)cc1 [drawing 68]
OUT: 40.4

---

# measurement-target: hERG channel (Homo sapiens (Human), UniProt Q12809)
# Sequence (Q12809 whole entry): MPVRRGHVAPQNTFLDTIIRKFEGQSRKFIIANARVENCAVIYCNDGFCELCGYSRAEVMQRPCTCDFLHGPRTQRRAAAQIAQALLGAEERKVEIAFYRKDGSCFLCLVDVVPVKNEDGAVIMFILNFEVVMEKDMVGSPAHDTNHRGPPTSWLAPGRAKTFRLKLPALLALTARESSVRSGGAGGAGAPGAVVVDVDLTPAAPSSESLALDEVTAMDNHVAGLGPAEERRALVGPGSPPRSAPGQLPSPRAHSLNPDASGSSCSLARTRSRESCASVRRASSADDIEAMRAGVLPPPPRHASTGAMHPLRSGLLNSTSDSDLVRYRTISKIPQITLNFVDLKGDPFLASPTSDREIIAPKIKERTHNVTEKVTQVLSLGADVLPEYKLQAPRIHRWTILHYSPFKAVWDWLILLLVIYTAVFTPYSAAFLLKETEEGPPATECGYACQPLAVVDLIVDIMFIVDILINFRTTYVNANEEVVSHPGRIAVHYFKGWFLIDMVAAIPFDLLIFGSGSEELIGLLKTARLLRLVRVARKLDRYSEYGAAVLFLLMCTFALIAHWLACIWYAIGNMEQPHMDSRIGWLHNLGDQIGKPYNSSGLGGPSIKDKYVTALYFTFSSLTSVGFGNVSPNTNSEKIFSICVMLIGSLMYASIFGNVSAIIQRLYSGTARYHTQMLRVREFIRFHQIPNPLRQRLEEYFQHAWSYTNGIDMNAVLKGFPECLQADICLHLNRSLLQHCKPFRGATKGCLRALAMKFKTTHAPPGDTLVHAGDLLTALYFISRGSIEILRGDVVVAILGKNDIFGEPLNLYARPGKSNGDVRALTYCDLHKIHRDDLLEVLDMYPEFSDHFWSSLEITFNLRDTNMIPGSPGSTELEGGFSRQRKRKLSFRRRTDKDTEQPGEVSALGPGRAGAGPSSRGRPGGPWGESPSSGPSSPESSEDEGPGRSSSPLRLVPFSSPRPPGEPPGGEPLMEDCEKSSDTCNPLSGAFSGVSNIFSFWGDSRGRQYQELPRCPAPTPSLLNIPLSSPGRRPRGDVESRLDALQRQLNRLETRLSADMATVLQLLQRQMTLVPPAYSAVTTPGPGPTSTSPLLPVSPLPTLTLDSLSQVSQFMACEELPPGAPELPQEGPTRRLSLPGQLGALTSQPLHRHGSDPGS
# assay: hERG channel inhibition in vitro
# Experimental: Compound IV exerts little or no in vitro inhibitory effects (IC50≧300 μM) on the hERG channel.
pIC50: −log10 of the molar value.
observable: pIC50

IN: Query for hERG channel (Homo sapiens (Human), UniProt Q12809): what pIC50 does the record show for "O=C(c1ccc(O)c(F)c1)N(c1ccc(O)cc1)c1ccc(F)cc1" ?
OUT: ≤ 3.52

---

# measurement-target: rat ER-α (Rattus norvegicus (Rat))
observable: pIC50
The value called pIC50 is obtained by taking minus log10 of the concentration in mol/L.

IN: Field request: pIC50 | item: O=C(c1ccc(F)cc1C(F)(F)F)N(c1ccc(O)cc1)c1ccc(OCCN2CCCCC2)cc1 [drawing 69]
OUT: 8.66

---

# measurement-target: ER-β ligand binding domain (LBD) (Homo sapiens (Human))
# assay: ER-β competitive radioligand binding assay with [3H]E2
# condition-info: read-out: ER-β Ki
observable: Ki (nM)
# value in nM; strip the unit string

IN: Dear colleague, I am looking for the recorded Ki of the following molecule: "CCCc1ccc(C(=O)N(c2ccc(O)cc2)c2ccc(O)cc2)cc1"
OUT: 81.6

---

# measurement-target: ER-α ligand binding domain (LBD) (Homo sapiens (Human), UniProt P03372)
# Sequence (P03372 whole entry, looked up, species assumed, the tested form may be a part): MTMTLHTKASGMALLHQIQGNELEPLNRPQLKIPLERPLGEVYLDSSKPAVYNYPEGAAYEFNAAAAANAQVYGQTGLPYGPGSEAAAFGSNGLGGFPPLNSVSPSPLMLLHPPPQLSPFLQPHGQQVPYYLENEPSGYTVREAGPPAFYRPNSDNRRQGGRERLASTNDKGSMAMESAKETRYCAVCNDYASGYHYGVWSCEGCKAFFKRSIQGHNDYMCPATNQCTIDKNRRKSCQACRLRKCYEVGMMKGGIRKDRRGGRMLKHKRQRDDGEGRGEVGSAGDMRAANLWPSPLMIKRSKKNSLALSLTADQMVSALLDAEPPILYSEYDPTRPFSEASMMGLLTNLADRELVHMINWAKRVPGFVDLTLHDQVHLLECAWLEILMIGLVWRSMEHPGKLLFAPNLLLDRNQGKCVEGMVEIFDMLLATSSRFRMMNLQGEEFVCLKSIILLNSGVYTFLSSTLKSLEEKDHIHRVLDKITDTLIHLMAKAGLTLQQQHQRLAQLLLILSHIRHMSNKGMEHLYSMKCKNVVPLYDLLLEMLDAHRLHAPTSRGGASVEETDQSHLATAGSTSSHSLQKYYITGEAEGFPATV
# assay: ER-α competitive radioligand binding assay with [3H]E2
# condition-info: read-out: ER-α Ki
# Method: Following incubation, plates were harvested with GF/B filters on the Unifilter-96 Harvester (PerkinElmer) and washed three times with ice-cold buffer B (50 mM Tris, pH 7.2). The filter plates were dried at room temperature, then 35 μl Microscint-O cocktail was added to each well and the filter plates were sealed with TopSeal-A. Radioactivity was counted in a TopCount® NXT Microplate Scintillation Counter using the settings for ^3H in Microscint cocktail (PerkinElmer). […]
observable: Ki
# output: numeric value plus its unit

As a guide, the following entries are already answered.
[
  {
    "compound": "O=C(c1ccc(O)c(F)c1)N(c1ccc(O)cc1)c1ccc(O)cc1",
    "measurement-target": "ER-α ligand binding domain (LBD) (Homo sapiens (Human), UniProt P03372)",
    "Ki": "6.06 nM"
  },
  {
    "compound": "O=C(c1ccc2ccccc2c1)N(c1ccc(O)cc1)c1ccc(O)cc1",
    "measurement-target": "ER-α ligand binding domain (LBD) (Homo sapiens (Human), UniProt P03372)",
    "Ki": "9 nM"
  }
]

IN: Tell me the measured Ki of O=C(c1ccc(F)cc1C(F)(F)F)N(c1ccc(O)cc1)c1ccc(OCCN2CCCCC2)cc1 [drawing 65] , please.
OUT: 14.8 nM

IN: # input compound: Cc1cccc(CN(c2ccc(O)cc2)c2ccc(O)cc2)c1C [drawing 59] ; wanted: its Ki
OUT: 3.81 nM

IN: Which Ki is reported for this compound? "O=C(c1ccc(O)c(F)c1)N(c1ccc(O)cc1)c1ccc(F)cc1"
OUT: 21.7 nM

IN: Can you share its Ki? I mean this compound: "O=C(c1ccc(O)c(F)c1)N(c1ccccc1)c1ccc(O)cc1"
OUT: 15 nM

IN: Requested field: Ki. Item: "Oc1ccc(CN(c2ccc(O)cc2)c2ccc(F)cc2)cc1"
OUT: 13 nM

IN: Ki lookup needed for "Cc1c(F)cccc1C(=O)N(c1ccc(O)cc1)c1ccc(O)cc1" , thanks.
OUT: 15.1 nM

IN: # query: Ki of entry "CCCc1ccc(C(=O)N(c2ccc(O)cc2)c2ccc(O)cc2)cc1"
OUT: 3.75 nM

---

# measurement-target: rat ER-β (Rattus norvegicus (Rat))
# assay: ER-β transactivation assay (ERE-LUC) in HEK-293 cells
# Assay type: cell-based
observable: IC50 (nM)
Report as a plain number; the unit nM is understood.

IN: Entry O=C(c1ccc(F)cc1C(F)(F)F)N(c1ccc(O)cc1)c1ccc(OCCN2CCCCC2)cc1 [drawing 69] : reported IC50 = ?
OUT: 145

---

# measurement-target: ER-β ligand binding domain (LBD) (Homo sapiens (Human), UniProt Q92731)
# assay: ER-β competitive radioligand binding assay with [3H]E2
# condition-info: read-out: ER-β Ki
observable: pKi
pKi is a log-scale quantity: -log10 of the concentration expressed in molar.

Check out these entries, answers already filled in.
[
  {
    "compound": "O=C(c1ccc(F)cc1C(F)(F)F)N(c1ccc(O)cc1)c1ccc(OCCN2CCCCC2)cc1 [drawing 65]",
    "measurement-target": "ER-β ligand binding domain (LBD) (Homo sapiens (Human), UniProt Q92731)",
    "pKi": 6.19
  },
  {
    "compound": "O=C(c1ccc(O)c(F)c1)N(c1ccccc1)c1ccc(O)cc1",
    "measurement-target": "ER-β ligand binding domain (LBD) (Homo sapiens (Human), UniProt Q92731)",
    "pKi": 7.24
  }
]

IN: What does the record list as pKi for "O=C(c1ccc2ccccc2c1)N(c1ccc(O)cc1)c1ccc(O)cc1" ?
OUT: 7.14
